tested on: maximum electroshock seizure (MES) model; assay: Maximum electroshock seizure (MES) model test; type: in vivo, mice; settings: Mus musculus, po, 1 h, 50 mg/kg oral, Slc: ddY male mice, 3 per group, electrical stimulation 1 hour after administration; inhibition of hind limb extension; read-out: MES (positive number/tested number) (converted)
Recorded endpoint: responders at 50 mg/kg
Note to self: number, then unit, no commentary.

Consider the worked cases shown below.
Molecule	Recorded endpoint	Reported
NC(=O)C(O)c1cc(F)ccc1-c1cc(Cl)cc(Cl)c1 (centres unmarked) [Example 189]	responders at 50 mg/kg	100%
NC(=O)Cc1ccccc1-c1cc(F)cc(F)c1 [Example 153, 2-(3′,5′-difluorobiphenyl-2-yl)acetamide]	responders at 50 mg/kg	0%
NC(=O)C(O)c1ccccc1-c1cc(Cl)cc(Cl)c1 (centres unmarked) [Example 183]	responders at 50 mg/kg	100%
CNC(=O)C(OC)c1ccccc1-c1ccccc1F (centres unmarked) [Example 201]	responders at 50 mg/kg	33.3%

So for NC(=O)Cc1cc(Cl)ccc1-c1ccc(C(F)(F)F)cc1 [Example 142] , the logged responders at 50 mg/kg turned out to be 33.3%

Short answer for CN(C)C(=O)Cc1ccccc1-c1ccc(F)cc1 [Example 24] : responders at 50 mg/kg was 33.3%

responders at 50 mg/kg in this record for CNC(=O)Cc1ccccc1-c1ccccc1F [Example 28] : 0%

Reported responders at 50 mg/kg of NC(=O)Cc1ccccc1-c1cc(Cl)ccc1F [Example 87] : 33.3%

---

Recorded measurements of responders at 50 mg/kg, one per entry
tested on: maximum electroshock seizure (MES) model; experiment: Maximum electroshock seizure (MES) model test; assay type: in vivo, mice; conditions: Mus musculus, po, 1 h, 50 mg/kg oral, Slc: ddY male mice, 3 per group, electrical stimulation 1 hour after administration; inhibition of hind limb extension; read-out: MES (positive number/tested number) (converted)
State the answer as a number, implicitly in %.

Worked cases, responders at 50 mg/kg given:
Compound	Assay system	responders at 50 mg/kg, %
COC(C(=O)N(C)C)c1ccccc1-c1ccc(F)cc1 (stereo not drawn)	maximum electroshock seizure (MES) model	0
NC(=O)Cc1ccccc1-c1cc(Cl)cc(Cl)c1 [Example 71, 2-(3′,5′-dichlorobiphenyl-2-yl)acetamide]	maximum electroshock seizure (MES) model	66.7
NC(=O)C(O)c1ccccc1-c1cc(F)ccc1Cl (stereo not drawn)	maximum electroshock seizure (MES) model	66.7
CNC(=O)Cc1c(F)cccc1-c1ccccc1	maximum electroshock seizure (MES) model	100
NC(=O)Cc1ccccc1-c1cccc(Cl)c1Cl	maximum electroshock seizure (MES) model	33.3
NC(=O)Cc1ccccc1-c1ccc(Br)cc1 [Example 49, 2-(4′-Bromobiphenyl-2-yl)acetamide]	maximum electroshock seizure (MES) model	0
NC(=O)C(O)c1ccccc1-c1ccccc1 (stereo not drawn) [Example 59, 2-(Biphenyl-2-yl)-2-hydroxyacetamide]	maximum electroshock seizure (MES) model	100
NC(=O)Cc1ccccc1-c1ccccc1Cl [Example 16, 2-(2′-chlorobiphenyl-2-yl)acetamide]	maximum electroshock seizure (MES) model	100
NC(=O)Cc1cc(Cl)ccc1-c1ccccc1	maximum electroshock seizure (MES) model	0
NC(=O)Cc1ccccc1-c1ccc(Cl)c(C(F)(F)F)c1	maximum electroshock seizure (MES) model	0

The recorded responders at 50 mg/kg for NC(=O)C(O)c1ccc(F)cc1-c1cc(Cl)cc(Cl)c1 (stereo not drawn) is 66.7

The reported value for CNC(=O)Cc1ccccc1-c1ccc(Cl)cc1 in terms of responders at 50 mg/kg is 0

// responders at 50 mg/kg value for CCNC(=O)Cc1ccccc1-c1ccccc1Cl : 0

Entry under test: CC(C(N)=O)c1ccccc1-c1cccc(F)c1 (stereo not drawn) [Example 175, 2-(3′-fluorobiphenyl-2-yl)propanamide] . Its responders at 50 mg/kg was 0

Per the record, CNC(=O)Cc1ccc(F)cc1-c1cccc(F)c1 has responders at 50 mg/kg of 0

Please fill in: responders at 50 mg/kg reported for COC(C(N)=O)c1ccccc1-c1cccc(F)c1 (stereo not drawn) = 33.3

responders at 50 mg/kg in this record for NC(=O)Cc1ccccc1-c1cc(F)cc(Cl)c1 : 100

Entry NC(=O)Cc1ccccc1-c1ccc(F)cc1F , responders at 50 mg/kg reported as 33.3

Reported responders at 50 mg/kg ( CNC(=O)Cc1ccccc1-c1ccc(C(F)(F)F)cc1F ) = 33.3

Form field responders at 50 mg/kg, entry NC(=O)C(O)c1ccccc1-c1cc(Cl)ccc1F (stereo not drawn) : 33.3

NC(=O)Cc1ccccc1-c1cccc(Cl)c1 [Example 13, 2-(3′-chlorobiphenyl-2-yl)acetamide] has a reported responders at 50 mg/kg of 66.7

compound CNC(=O)Cc1ccccc1-c1ccc(F)cc1 , responders at 50 mg/kg observed: 100

The compound listed as NC(=O)Cc1ccc(F)cc1-c1cccc(Cl)c1 shows responders at 50 mg/kg equal to 66.7

// CNC(=O)Cc1ccc(F)cc1-c1ccccc1 : responders at 50 mg/kg value = 33.3

Cited source: patent US20120142771A1
